Biological target: T1, human TGFβ2 (human, UniProt P61812 303-414)
T1 construct: also called TGFβ2 homodimer
T1 sequence: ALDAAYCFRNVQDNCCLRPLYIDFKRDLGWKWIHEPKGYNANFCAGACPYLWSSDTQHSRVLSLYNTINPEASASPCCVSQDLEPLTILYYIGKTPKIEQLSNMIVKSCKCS
Test: Biacore off-rate vs wt GC1008, 50 nM
MEASURED_PARAMETER: kd var/kd wt

BINDER: D56V (antibody, V domains shown, GC1008 IgG4 variant) VH: QVQLVQSGAEVKKPGSSVKVSCKASGYTFSSNVISWVRQAPGQGLEWMGGVIPIVVIANYAQRFKGRVTITADESTSTTYMELSSLRSEDTAVYYCASTLGLVLDAMDYWGQGTLVTVSS VL: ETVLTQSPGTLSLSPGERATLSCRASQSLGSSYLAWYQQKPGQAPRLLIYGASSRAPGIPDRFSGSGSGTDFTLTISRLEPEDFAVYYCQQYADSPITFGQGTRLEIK
MEASURED_PARAMETER: kd var/kd wt
RESULT: 1.5
--
BINDER: V55L (antibody, V domains shown, GC1008 IgG4 variant) VH: QVQLVQSGAEVKKPGSSVKVSCKASGYTFSSNVISWVRQAPGQGLEWMGGVIPILDIANYAQRFKGRVTITADESTSTTYMELSSLRSEDTAVYYCASTLGLVLDAMDYWGQGTLVTVSS VL: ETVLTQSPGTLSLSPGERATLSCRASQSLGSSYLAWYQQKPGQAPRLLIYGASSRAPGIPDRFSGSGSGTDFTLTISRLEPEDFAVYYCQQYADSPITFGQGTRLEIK
MEASURED_PARAMETER: kd var/kd wt
RESULT: 1.6
